Examples of sequences with documented EC50 follow.
system: MC/9 mast cells; type: cell-based, murine; conditions: read-out: MCD50: concentration of peptide necessary to induce degranulation of 50% of mast cells

Would you please look over these solved cases?
{"Query sequence": "INLKALAALAKMIL [MP-12M, I N L K A L A A L A K M I L]", "Experimental result": "11.3 µM"}
{"Query sequence": "INLKALAALAKIIL [MP-12I, I N L K A L A A L A K I I L]", "Experimental result": "12 µM"}
{"Query sequence": "INLKALAALAKYIL [MP-12Y, I N L K A L A A L A K Y I L]", "Experimental result": "11.1 µM"}

Here is the next item to consider.
# EC50 (sequence: INLKALAALAKFIL [MP-12F, I N L K A L A A L A K F I L] ) is 9.22 µM
